# Test system: Moraxella catarrhalis
# protocol_notes: Antimicrobial activity against Moraxella catarrhalis FH6810 after 18 hrs by micro broth dilution assay
# Assay type: functional
property_measured: MIC

Reported MIC ( `CCCCC[C@H](O)CC(=O)N[C@H](CC(C)C)C(=O)N[C@H](CCC(=O)O)C(=O)N[C@H]1C(=O)N[C@H](CC(C)C)C(=O)N[C@H](CC(C)C)C(=O)N[C@H](CO)C(=O)N[C@@H](CC(C)C)C(=O)N[C@H](CCC(N)=O)C(=O)N[C@@H](CC(C)C)C(=O)N[C@@H](CC(C)C)C(=O)N[C@@H](CCC(=O)O)C(=O)O[C@@H]1C` ) = > 128 µg/mL

Reported MIC ( `CCCCCCC[C@H](O)CC(=O)N[C@H](CC(C)C)C(=O)N[C@H](CCC(=O)O)C(=O)N[C@H]1C(=O)N[C@H](CC(C)C)C(=O)N[C@H](CC(C)C)C(=O)N[C@H](CO)C(=O)N[C@@H](CC(C)C)C(=O)N[C@H](CCC(N)=O)C(=O)N[C@@H](CC(C)C)C(=O)N[C@@H]([C@@H](C)CC)C(=O)N[C@@H](CCC(=O)O)C(=O)O[C@@H]1C` ) = > 128 µg/mL

Reported MIC ( `CCCCCCC[C@H](O)CC(=O)N[C@H](CC(C)C)C(=O)N[C@H](CC(=O)O)C(=O)N[C@H]1C(=O)N[C@H](CC(C)C)C(=O)N[C@H](CC(C)C)C(=O)N[C@H](CO)C(=O)N[C@@H](CC(C)C)C(=O)N[C@H](CCC(N)=O)C(=O)N[C@@H](CC(C)C)C(=O)N[C@@H](CC(C)C)C(=O)N[C@@H](CCC(=O)O)C(=O)O[C@@H]1C` ) = > 128 µg/mL

###

Hi there, I'd appreciate the recorded MIC for every entry that follows.
# Tested on: Moraxella catarrhalis
# protocol_notes: Antimicrobial activity against Moraxella catarrhalis FH6810 after 18 hrs by micro broth dilution assay
# Format: functional
State just the number; it will be interpreted in µg/mL.

Reported MIC ( `CCCCCCCCC[C@H](O)CC(=O)N[C@H](CC(C)C)C(=O)N[C@H](CC(=O)O)C(=O)N[C@H]1C(=O)N[C@H](CC(C)C)C(=O)N[C@H](CC(C)C)C(=O)N[C@H](CO)C(=O)N[C@@H](CC(C)C)C(=O)N[C@H](CCC(N)=O)C(=O)N[C@@H](CC(C)C)C(=O)N[C@@H]([C@@H](C)CC)C(=O)N[C@@H](CCC(=O)O)C(=O)O[C@@H]1C` ) = 4

Reported MIC ( `CCCCCCC[C@H](O)CC(=O)N[C@H](CC(C)C)C(=O)N[C@H](CC(=O)O)C(=O)N[C@H]1C(=O)N[C@H](CC(C)C)C(=O)N[C@H](CC(C)C)C(=O)N[C@H](CO)C(=O)N[C@@H](CC(C)C)C(=O)N[C@H](CCC(N)=O)C(=O)N[C@@H](CC(C)C)C(=O)N[C@@H]([C@@H](C)CC)C(=O)N[C@@H](CCC(=O)O)C(=O)O[C@@H]1C` ) = 32
